Data credit: patent US12630551B2

target: Lp-PLA2 enzyme in human plasma (Homo sapiens); construct: from tissue; host or cells: mixed (pooled) human plasma; experiment: Human plasma Lp-PLA2 assay (Thio-PAF assay); type: biochemical; conditions: mixed human plasma; 2-thio-PAF substrate, CPM; 30-min pre-incubation; fluorescence ex 380/em 485; read-out: Thio-PAF (pIC50) (converted)
Sequence (Q13093 22-441): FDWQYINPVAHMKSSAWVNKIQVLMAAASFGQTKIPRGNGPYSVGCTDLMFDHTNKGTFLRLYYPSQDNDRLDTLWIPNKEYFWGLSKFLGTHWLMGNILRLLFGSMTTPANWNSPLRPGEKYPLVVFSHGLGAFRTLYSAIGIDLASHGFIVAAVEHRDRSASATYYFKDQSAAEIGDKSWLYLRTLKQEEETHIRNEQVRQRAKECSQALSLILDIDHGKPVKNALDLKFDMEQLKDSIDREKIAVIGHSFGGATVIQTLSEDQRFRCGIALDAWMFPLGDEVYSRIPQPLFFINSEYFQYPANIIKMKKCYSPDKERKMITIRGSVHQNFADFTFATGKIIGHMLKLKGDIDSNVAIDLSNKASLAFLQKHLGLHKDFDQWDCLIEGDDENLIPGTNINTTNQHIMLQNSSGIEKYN
# maps each entry to its log10 of IC50
The base-10 logarithm of IC50, taken with IC50 in nM, is what appears here.

COMPOUND	QUANTITY NAME	RECORDED VALUE
O=c1nc(OCc2cc(F)c(Oc3ccc(Cl)c(C(F)(F)F)c3)c(F)c2)cc2n1CC1CCCN2C1 (stereo not shown)	log10 of IC50	0.80
O=c1nc(OCc2cc(F)cc(F)c2)cc2n1C[C@H]1CCCN2C1 [Compound 27]	log10 of IC50	1.70
Cc1cc(Oc2c(F)cc(COc3cc4n(c(=O)n3)CC3CCCN4C3)cc2F)ccn1 (stereo not shown)	log10 of IC50	0.80
Cc1ccc(Oc2c(F)cc(COc3cc4n(c(=O)n3)C[C@H]3CN4CCO3)cc2F)cn1	log10 of IC50	1.10
O=c1nc(OCc2cc(F)c(Oc3cccc(C(F)(F)F)c3)c(F)c2)cc2n1CC1CCCN2C1 (stereo not shown)	log10 of IC50	1.00

Challenge: Specify log10 of IC50 for Cc1ccc(Oc2c(F)cc(COc3cc4n(c(=O)n3)C[C@@H]3CN4CCO3)cc2F)cn1 and stop.
Response given: 1.00

Challenge: Specify log10 of IC50 for O=c1nc(OCc2cc(F)cc(F)c2)cc2n1C[C@@H]1CN2CCO1 [Compound 39] and stop.
Response given: 2.00

Challenge: Specify log10 of IC50 for Cc1ccc(Oc2c(F)cc(COc3cc4n(c(=O)n3)C[C@H]3CCCN4C3)cc2F)cn1 and stop.
Response given: 0.90

Challenge: Specify log10 of IC50 for O=c1nc(OCc2cc(F)cc(F)c2)cc2n1C[C@H]1CCCN2C1 [Compound 21] and stop.
Response given: 1.60

Challenge: Specify log10 of IC50 for Cc1ccc(Oc2c(F)cc(COc3cc4n(c(=O)n3)C[C@@H]3CCCN4C3)cc2F)cn1 and stop.
Response given: 0.90

Challenge: Specify log10 of IC50 for O=c1nc(OCc2cc(F)c(Oc3ccnc(C(F)(F)F)c3)c(F)c2)cc2n1CC1CCCN2C1 (stereo not shown) and stop.
Response given: 0.50

Challenge: Specify log10 of IC50 for O=c1nc(OCc2cc(F)c(F)cc2F)cc2n1C[C@H]1CCCN2C1 and stop.
Response given: 2.50

Challenge: Specify log10 of IC50 for O=c1nc(OCc2cc(F)c(Oc3cccc(C(F)(F)F)c3)c(F)c2)cc2n1C[C@H]1CCCN2C1 and stop.
Response given: 0.50

Challenge: Specify log10 of IC50 for O=c1nc(OCc2ccc(F)cc2F)cc2n1CC1CCCN2C1 (stereo not shown) and stop.
Response given: 1.50

Challenge: Specify log10 of IC50 for O=c1nc(OCc2cc(F)c(Oc3cccc(OC(F)(F)F)c3)c(F)c2)cc2n1CC1CCCN2C1 (stereo not shown) and stop.
Response given: 1.20

Challenge: Specify log10 of IC50 for O=c1nc(OCc2cc(F)c(Oc3ccc(C(F)(F)F)c(Cl)c3)c(F)c2)cc2n1CC1CCCN2C1 (stereo not shown) and stop.
Response given: 0.90
